# tgt: SARS-CoV-2 M^pro (Severe acute respiratory syndrome coronavirus 2)
# procedure_summary: FRET-based enzymatic assay for SARS-CoV-2 main protease
# Format: biochemical
Non-standard residues stand in square brackets, D forms with d. Residues, ends and D or L forms follow the SMILES beside them. *: point of attachment. Met(O2) = CS(=O)(=O)CC[C@H](N)C(=O)O; Nva = CCC[C@H](N)C(=O)O; Cbz = O=C(OCc1ccccc1)*
For each of the molecules below, state its log10 of IC50.
Form field - Quantity: IC50; Unit: µM; Scale: log10

Lab note: each molecule below needs its log10 of IC50 filled in.
1. CSCC[C@H](NC(=O)[C@H](CC(C)C)NC(=O)[C@H](CC(C)C)NC(C)=O)C(=O)C(=O)NCc1ccccc1
2. CCC[C@H](NC(=O)[C@H](CC(C)C)NC(=O)[C@H](Cc1ccccc1)NC(=O)OCc1ccccc1)C(=O)C(=O)NC1CC1
3. CCC[C@@H](C=O)NC(=O)[C@H](CC(C)C)NC(=O)[C@H](CC(C)C)NC(C)=O [Jun9-48-3] (Ac-Leu-Leu-[Nva]-aldehyde)
4. CSCC[C@H](NC(=O)[C@H](CC(C)C)NC(=O)CNC(=O)OCc1ccccc1)C(=O)C(=O)NC1CC1
5. CC(C)C[C@H](NC(=O)CNC(=O)OCc1ccccc1)C(=O)N[C@@H](CCS(C)(=O)=O)C(=O)C(=O)NC1CC1
6. CC(=O)N[C@@H](CC(C)C)C(=O)N[C@@H](CC(C)C)C(=O)N[C@H](C=O)CCS(C)(=O)=O [Jun9-58-1] (Ac-Leu-Leu-[Met(O2)]-aldehyde)
7. CSCC[C@@H](C=O)NC(=O)[C@H](CC(C)C)NC(=O)[C@H](CC(C)C)NC(=O)OCc1ccccc1 [Jun8-61-4] (Cbz-Leu-Leu-Met-aldehyde)

Reply:
[0.25, -0.32, 1.59, 0.08, -0.89, -0.31, -0.96]

Parameter requested: log10 of IC50. Apply to each item below.
1. CSCC[C@H](NC(=O)[C@H](CC(C)C)NC(=O)[C@H](Cc1ccccc1)NC(C)=O)C(=O)C(=O)NC1CC1
2. CC(=O)N[C@@H](CC1CCCCC1)C(=O)N[C@@H](CC(C)C)C(=O)N[C@@H](CC[S+](C)[O-])C(=O)C(=O)NC1CC1 (stereo partly shown)
3. CSCC[C@H](NC(=O)[C@H](CC(C)C)NC(=O)[C@H](CC(C)C)NC(C)=O)C(=O)C(=O)NC(C)C
4. CC(=O)N[C@@H](CC(C)C)C(=O)N[C@@H](CC(C)C)C(=O)N[C@@H](CCS(C)(=O)=O)C(=O)C(=O)NC1CC1
5. CC(=O)N[C@@H](CC1CCCCC1)C(=O)N[C@@H](CC(C)C)C(=O)N[C@@H](CCS(C)(=O)=O)C(=O)C(=O)NC1CC1

Reply:
[-0.34, -0.57, 0.78, -0.74, -1.00]
